Cited source for all entries: patent US20250257055A1

- assay.name: Membrane permeability test (PAMPA)
- Format: in vitro ADME
- reported.conditions: pH 7.4, 37° C., read-out: pH 7.4 Pe
- Procedure: The membrane permeability of the test compound was tested by parallel artificial membrane permeability assay (PAMPA) as follows. […] Both plates were overlapped and incubated at 37° C. for 4 hours, after which the UV of the solutions on the acceptor side and donor side was measured using a UV plate reader (190-500 nm). Compounds with poor UV absorption were measured using LC-MS. The permeability coefficient Pe (10^−6 cm/sec) of the drug was calculated using the following equation.
value.type: Papp at 4 h (×10⁻⁶ cm/s)

Sample answers from the record:
- CN1CC(N(Cc2ccc(F)cn2)C(=O)CN2C(=O)N[C@]3(C[C@@H](F)c4cc(-c5cnn(C(C)(C)CO)c5)ccc43)C2=O)(C(F)(F)F)C1: 3.5
- CN1CC(N(Cc2ccc(F)cc2)C(=O)CN2C(=O)N[C@@]3(C[C@H](F)c4cc(-c5cnn(C)c5)c(F)cc43)C2=O)(C(F)(F)F)C1: 30
- O=C1N[C@]2(C[C@@H](F)c3cc(-c4cnn(C5CN(C6COC6)C5)c4)ccc32)C(=O)N1CC(=O)N(Cc1ccc(F)cn1)C1(C(F)(F)F)CC(F)(F)C1: 15.3

A = O=C1N[C@]2(CCc3cc(-c4cnn(C5CN(C6COC6)C5)c4)ccc32)C(=O)N1CC(=O)N(Cc1ccc(F)cc1)C1(C(F)(F)F)CC(F)(F)C1
B = O=C1N[C@]2(C[C@@H](F)c3cc(-c4cnn(C5CN(C6COC6)C5)c4)ccc32)C(=O)N1CC(=O)N(Cc1ccc(F)cc1)C1(C(F)(F)F)COC1
Which value of Papp at 4 h is greater, the one for A or the one for B ? Provide the label of your selected option as the answer.
A
(A: 28.4 ×10⁻⁶ cm/s, B: 17.7 ×10⁻⁶ cm/s)

###

# pIC50 listing for each entry below
- Tested on: G-401 cells
- assay.name: Cell proliferation inhibition experiment using G-401 cells
- Assay type: cell-based
- reported.conditions: Homo sapiens, 72 h, cultured for 3 days, CellTiter-Glo
# log scale: pIC50 equals minus log10 of the concentration in mol/L

Sample answers from the record:
- CN1CC(N(Cc2ccc(F)cn2)C(=O)CN2C(=O)N[C@]3(C[C@@H](F)c4cc(-c5cnn(C)c5)ccc43)C2=O)(C(F)(F)F)C1 [Example 20]: 7.44
- CC(C)n1cc(-c2ccc3c(c2)[C@H](F)C[C@]32NC(=O)N(CC(=O)N(Cc3ccc(F)cn3)C3(C(F)(F)F)CN(C)C3)C2=O)cn1 [Example 33]: 8.40

Query: pIC50; subject: CCn1cc(-c2ccc3c(c2)[C@H](F)C[C@]32NC(=O)N(CC(=O)N(Cc3ccc(F)cn3)C3(C(F)(F)F)CN(C)C3)C2=O)cn1 [Example 32]
8.30

Query: pIC50; subject: CN1CC(N(Cc2ccc(F)cc2)C(=O)CN2C(=O)N[C@]3(C[C@@H](F)c4cc(-c5cn(C)nc5F)ccc43)C2=O)(C(F)(F)F)C1 [Example 17]
7.60

Query: pIC50; subject: O=C1N[C@]2(C[C@@H](F)c3cc(-c4cnn(C5CN(C6COC6)C5)c4)ccc32)C(=O)N1CC(=O)N(Cc1ccc(F)cn1)C1(C(F)(F)F)COC1 [Example 7]
7.36

Query: pIC50; subject: CN1CC(N(Cc2ccc(F)cn2)C(=O)CN2C(=O)N[C@]3(C[C@@H](F)c4cc(-c5cnn(C6CCC6)c5)ccc43)C2=O)(C(F)(F)F)C1 [Example 34]
8.30

###

- assay.name: Pharmacokinetic study in mice
- Type: in vivo
- reported.conditions: female, BALB/c (BALB/cAnN CrlCrlj), mouse, plasma, oral, 10 mg/kg
value.type: AUC (ng·h/mL)

Sample answers from the record:
- O=C1N[C@]2(C[C@@H](F)c3cc(-c4cnn(C5CN(C6COC6)C5)c4)ccc32)C(=O)N1CC(=O)N(Cc1ccc(F)cn1)C1(C(F)(F)F)CC(F)(F)C1: 13100
- O=C1N[C@]2(C[C@@H](F)c3cc(-c4cnn(C5CN(C6COC6)C5)c4)ccc32)C(=O)N1CC(=O)N(Cc1ccc(F)cc1)C1(C(F)(F)F)COC1: 3890

a = O=C1N[C@]2(C[C@@H](F)c3cc(-c4cnn(C5CN(C6COC6)C5)c4)ccc32)C(=O)N1CC(=O)N(Cc1ccc(F)cn1)C1(C(F)(F)F)COC1
b = CN1CC(N(Cc2ccc(F)cn2)C(=O)CN2C(=O)N[C@]3(C[C@@H](F)c4cc(-c5cnn(C6COC6)c5)ccc43)C2=O)(C(F)(F)F)C1
c = O=C1N[C@]2(C[C@@H](F)c3cc(-c4cnn(C5CN(C6COC6)C5)c4)ccc32)C(=O)N1CC(=O)N(Cc1ccc(F)cc1)C1(C(F)(F)F)CC(F)(F)C1
# ascending order, key=AUC Use the labels to give the requested order.
b, a, c

A = O=C1N[C@]2(CCc3cc(-c4cnn(C5CN(C6COC6)C5)c4)ccc32)C(=O)N1CC(=O)N(Cc1ccc(F)cc1)C1(C(F)(F)F)CC(F)(F)C1
B = CN1CC(N(Cc2ccc(F)cc2)C(=O)CN2C(=O)N[C@]3(C[C@@H](F)c4cc(-c5cnn(C(C)(C)C#N)c5)ccc43)C2=O)(C(F)(F)F)C1
Identify the entry with the smaller AUC: A or B . Provide the label of your selected option as the answer.
B

A = O=C1N[C@]2(C[C@@H](F)c3cc(-c4cnn(C5CCN(C6COC6)CC5)c4)ccc32)C(=O)N1CC(=O)N(Cc1ccc(F)cn1)C1(C(F)(F)F)COC1
B = O=C1N[C@]2(CCc3cc(-c4cnn(C5CN(C6COC6)C5)c4)ccc32)C(=O)N1CC(=O)N(Cc1ccc(F)cc1)C1(C(F)(F)F)COC1
C = CN1CC(N(Cc2ccc(F)cc2)C(=O)CN2C(=O)N[C@]3(CCc4cc(-c5cnn(C)c5)ccc43)C2=O)(C(F)(F)F)C1
# ascending order, key=AUC Use the labels to give the requested order.
C, B, A

###

- assay.name: Pharmacokinetic study in mice
- Assay type: in vivo
- reported.conditions: female, BALB/c (BALB/cAnN CrlCrlj), mouse, plasma, intravenous, 1 mg/kg
value.type: half-life (h)

Sample answers from the record:
- O=C1N[C@]2(CCc3cc(-c4cnn(C5CN(C6COC6)C5)c4)ccc32)C(=O)N1CC(=O)N(Cc1ccc(F)cc1)C1(C(F)(F)F)CC(F)(F)C1: 1.75
- O=C1N[C@]2(CCc3cc(-c4cnn(C5CN(C6COC6)C5)c4)ccc32)C(=O)N1CC(=O)N(Cc1ccc(F)cc1)C1(C(F)(F)F)COC1: 1.1
- CN1CC(N(Cc2ccc(F)cc2)C(=O)CN2C(=O)N[C@]3(CCc4cc(-c5cnn(C)c5)ccc43)C2=O)(C(F)(F)F)C1: 0.97
- CN1CC(N(Cc2ccc(F)cc2)C(=O)CN2C(=O)N[C@]3(C[C@@H](F)c4cc(-c5cnn(C(C)(C)C#N)c5)ccc43)C2=O)(C(F)(F)F)C1: 2.12
- O=C1N[C@]2(C[C@@H](F)c3cc(-c4cnn(C5CN(C6COC6)C5)c4)ccc32)C(=O)N1CC(=O)N(Cc1ccc(F)cn1)C1(C(F)(F)F)COC1: 1.41

1 = O=C1N[C@]2(C[C@@H](F)c3cc(-c4cnn(C5CN(C6COC6)C5)c4)ccc32)C(=O)N1CC(=O)N(Cc1ccc(F)cc1)C1(C(F)(F)F)CC(F)(F)C1
2 = CN1CC(N(Cc2ccc(F)cn2)C(=O)CN2C(=O)N[C@]3(C[C@@H](F)c4cc(-c5cnn(C6COC6)c5)ccc43)C2=O)(C(F)(F)F)C1
3 = O=C1N[C@]2(C[C@@H](F)c3cc(-c4cnn(C5CCN(C6COC6)CC5)c4)ccc32)C(=O)N1CC(=O)N(Cc1ccc(F)cn1)C1(C(F)(F)F)COC1
# ascending order, key=half-life Use the labels to give the requested order.
2, 1, 3
(2: 1.15 h, 1: 2.3 h, 3: 4.1 h)

###

- assay.name: Membrane permeability test (PAMPA)
- Type: in vitro ADME
- reported.conditions: pH 7.4, 37° C., read-out: pH 7.4 Pe
value.type: Papp at 4 h (×10⁻⁶ cm/s)

- O=C1N[C@]2(CCc3cc(-c4cnn(C5CN(C6COC6)C5)c4)ccc32)C(=O)N1CC(=O)N(Cc1ccc(F)cc1)C1(C(F)(F)F)COC1 [Example 1]: 20.6
- CN1CC(N(Cc2ccc(F)cn2)C(=O)CN2C(=O)N[C@]3(C[C@@H](F)c4cc(-c5cnn(C6CCC6)c5)ccc43)C2=O)(C(F)(F)F)C1 [Example 34]: 34.9
- CNC(=O)Cn1cc(-c2ccc3c(c2)[C@H](F)C[C@]32NC(=O)N(CC(=O)N(Cc3ccc(F)cc3)[C@@H](C)C(F)(F)F)C2=O)cn1 [Comparative Example 1, reference compound]: 20.8

A = CN1CCn2ncc(-c3ccc4c(c3)[C@H](F)C[C@]43NC(=O)N(CC(=O)N(Cc4ccc(F)cc4)C4(C(F)(F)F)COC4)C3=O)c2C1 [Example 14]
B = O=C1N[C@]2(CCc3cc(-c4cnn(C5CN(C6COC6)C5)c4)ccc32)C(=O)N1CC(=O)N(Cc1ccc(F)cn1)C1(C(F)(F)F)COC1 [Example 6]
Which value of Papp at 4 h is greater, the one for A or the one for B ? Provide the label of your selected option as the answer.
A

1 = CN1CC(N(Cc2ccc(F)cc2)C(=O)CN2C(=O)N[C@]3(CCc4cc(-c5cn(C)nc5F)ccc43)C2=O)(C(F)(F)F)C1 [Example 18]
2 = CN1CC(N(Cc2ccc(F)cn2)C(=O)CN2C(=O)N[C@]3(CCc4cc(-c5cnn(C)c5)ccc43)C2=O)(C(F)(F)F)C1 [Example 21]
Which value of Papp at 4 h is greater, the one for 1 or the one for 2 ? Provide the label of your selected option as the answer.
1
(1: 31.8 ×10⁻⁶ cm/s, 2: 21.2 ×10⁻⁶ cm/s)
